B1: GA-binding protein alpha chain, residues 172 to 250; numbered along this chain, Q06546 (parent)
chain: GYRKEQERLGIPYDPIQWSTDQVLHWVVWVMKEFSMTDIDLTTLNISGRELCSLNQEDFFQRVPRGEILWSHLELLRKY

# Variants of: B1
# EXPERIMENTAL_DETAILS: abundance fitness (aPCA) (normalised: wild type 0, dead -1); higher = more abundant; growth selection in yeast, the domain comes from the species named
# CONDITION_SET: Homo sapiens
ASSAY_READOUT: abundance fitness

Any idea what its abundance fitness is? The variant is GYRKEQERLGIPYDPIQWSTDQVLHWVVWVMKEFSMTDIDLTTLNISGRELCSLNQEDGFQRVPRGEILWSHLELLRKY [F59G]
-0.888

Please give the result for GYRKRQERLGIPYDPIQWSTDQVLHWVVWVMKEFSMTDIDLTTLNISGRELCSLNQEDFFQRVPRGEILWSHLELLRKY [E5R] too.
-0.913

Please give the result for EYRKEQERLGIPYDPIQWSTDQVLHWVVWVMKEFSMTDIDLTTLNISGRELCSLNQEDFFQRVPRGEILWSHLELLRKY [G1E] too.
-0.164

Please give the result for GYMKEQERLGIPYDPIQWSTDQVLHWVVWVMKEFSMTDIDLTTLNISGRELCSLNQEDFFQRVPRGEILWSHLELLRKY [R3M] too.
-0.158

Please give the result for GYRKEQERLGIPYDPIQWSTDQVLHWVVWVMKEFSMTDIDLTTLNISGRELCSLNQEDFFSRVPRGEILWSHLELLRKY [Q61S] too.
0.004

Please give the result for GYRKEQERLGIPYDPIQTSTDQVLHWVVWVMKEFSMTDIDLTTLNISGRELCSLNQEDFFQRVPRGEILWSHLELLRKY [W18T] too.
-0.98

Please give the result for GYRKEQERLGIPYDPIQWSTDQVLHWVVWVMKEFSMTDIDLTTLNISWRELCSLNQEDFFQRVPRGEILWSHLELLRKY [G48W] too.
-0.84

Please give the result for GYRKEQERLGIPYDPIQWSTDQVLHWVVWVMKEFSMTDIDLTTLNISGRELCSLNQEDFFQHVPRGEILWSHLELLRKY [R62H] too.
-0.213

Please give the result for GYRKEQERLGIPYDPIQWSTDQVLHWVVWVMKEFSMTDIDLTTLNISGRELCSLNQEDHFQRVPRGEILWSHLELLRKY [F59H] too.
-0.931

Please give the result for GYRKEQERLGIPYDPIQWSTDEVLHWVVWVMKEFSMTDIDLTTLNISGRELCSLNQEDFFQRVPRGEILWSHLELLRKY [Q22E] too.
0

Please give the result for GYRKEQERLGIPYDPIQWSTDQVLHWVVWVMKKFSMTDIDLTTLNISGRELCSLNQEDFFQRVPRGEILWSHLELLRKY [E33K] too.
-0.008

Please give the result for GYRKEQERLGIPYDPIQWSTDQVLHWVVWVMKEFSMTDIDLTTLNISGRELCSLNQEDFFQRRPRGEILWSHLELLRKY [V63R] too.
-1.06

Please give the result for GYRKEQERLGIPYDPIQWSTDQVLHWVVWVMKEFSMTDIDLTTLNISGRELCSLNQEDFFQRVPRGEILWEHLELLRKY [S71E] too.
-0.021

Please give the result for GYRKEQERLGIPYDPIQWSTDQVLHWVVWVMKEFSMTDIDLTQLNISGRELCSLNQEDFFQRVPRGEILWSHLELLRKY [T43Q] too.
-0.016

Please give the result for GYRKEQERLGIPYDPIQWSTDQVLHWVVWVMKEFSMTDIDLTTLNISGRELCSLNQEDFFQRVPRGEILWSHLELLAKY [R77A] too.
-0.547

Please give the result for GYRKEQERLGIPYDPIQWSTDQVLHWVVWVMKEFSMTDIDLTTLNISGRELCHLNQEDFFQRVPRGEILWSHLELLRKY [S53H] too.
-0.171

Please give the result for GYRKEQERLGIAYDPIQWSTDQVLHWVVWVMKEFSMTDIDLTTLNISGRELCSLNQEDFFQRVPRGEILWSHLELLRKY [P12A] too.
-0.3

Please give the result for GYDKEQERLGIPYDPIQWSTDQVLHWVVWVMKEFSMTDIDLTTLNISGRELCSLNQEDFFQRVPRGEILWSHLELLRKY [R3D] too.
-0.499

Please give the result for GYRKEQERLGIPYDPIQWSTDQVLMWVVWVMKEFSMTDIDLTTLNISGRELCSLNQEDFFQRVPRGEILWSHLELLRKY [H25M] too.
-0.303

Please give the result for GYRKEQERLGIPYDPIQWSTDQVLHWVVWVMKEFSMTDIDLTTLNISGRELCSLNQEDFFQRVPRGEILTSHLELLRKY [W70T] too.
-1.05

Please give the result for GYRKEQERLGIPYDPIQWSTDQVLHWVVWVMKEFSMTDIDLTTLNISGRELCSLNQEDFFQRVPRGEILWRHLELLRKY [S71R] too.
-0.034

Please give the result for GYRKEQERLGPPYDPIQWSTDQVLHWVVWVMKEFSMTDIDLTTLNISGRELCSLNQEDFFQRVPRGEILWSHLELLRKY [I11P] too.
-0.928

Please give the result for GYRKEQERLGIPYDPIQWSTDQVLHWVVWVMKEFSMFDIDLTTLNISGRELCSLNQEDFFQRVPRGEILWSHLELLRKY [T37F] too.
-0.019

Please give the result for GYRKEQERLGIPYDPIQWSTDQVLHWVVWVMKEFSMTIIDLTTLNISGRELCSLNQEDFFQRVPRGEILWSHLELLRKY [D38I] too.
-0.626

Please give the result for GYRKEQERLGIPYDPIQWSQDQVLHWVVWVMKEFSMTDIDLTTLNISGRELCSLNQEDFFQRVPRGEILWSHLELLRKY [T20Q] too.
-0.043

Please give the result for GYRKEQERLGIPYDPIQWSTDQVLHWVVWVMKEFSMTDIDLTTLNISGREMCSLNQEDFFQRVPRGEILWSHLELLRKY [L51M] too.
-0.163

Please give the result for GYRKEQERLGIPIDPIQWSTDQVLHWVVWVMKEFSMTDIDLTTLNISGRELCSLNQEDFFQRVPRGEILWSHLELLRKY [Y13I] too.
-0.022

Please give the result for GYAKEQERLGIPYDPIQWSTDQVLHWVVWVMKEFSMTDIDLTTLNISGRELCSLNQEDFFQRVPRGEILWSHLELLRKY [R3A] too.
-0.268

Please give the result for GYRKEQERLGIPYDPIQWSTDQVLHWVVWVMKEFSMTDIDLTTLNTSGRELCSLNQEDFFQRVPRGEILWSHLELLRKY [I46T] too.
-0.654

Please give the result for GYRKEQERLGIPYDPIQWSTDQVLHWVVWVMKEFSMTDIDLTTLNISGRELCSLNQEDFFQRVPRGEILWNHLELLRKY [S71N] too.
-0.115

Please give the result for GYRKEQERLGIPYDPIQWSTDQVLHWVVWVMKEFSMTYIDLTTLNISGRELCSLNQEDFFQRVPRGEILWSHLELLRKY [D38Y] too.
-0.261

Please give the result for GYRKEQERLGIPYDPIQWSTDQVLHWVVWVMKEFSMTDIDLTTLNISGRELCSLNQEDFFQRVPRGRILWSHLELLRKY [E67R] too.
-0.101

Please give the result for GYRKEQELLGIPYDPIQWSTDQVLHWVVWVMKEFSMTDIDLTTLNISGRELCSLNQEDFFQRVPRGEILWSHLELLRKY [R8L] too.
-0.06

Please give the result for GYRKEQERLGIPYDPIQWSTDQVLHWVVWVMKEFSMTDIDLTDLNISGRELCSLNQEDFFQRVPRGEILWSHLELLRKY [T43D] too.
0.034

Please give the result for GYRKKQERLGIPYDPIQWSTDQVLHWVVWVMKEFSMTDIDLTTLNISGRELCSLNQEDFFQRVPRGEILWSHLELLRKY [E5K] too.
-0.806

Please give the result for GYRKEQERLGIPYDPIQWSTDQVLHWVVWVMKEFSMTDIDLTTLNISGRELCSLNQEDFFKRVPRGEILWSHLELLRKY [Q61K] too.
-0.016

Please give the result for GYRKEQERLGIPYDPIQWSLDQVLHWVVWVMKEFSMTDIDLTTLNISGRELCSLNQEDFFQRVPRGEILWSHLELLRKY [T20L] too.
-0.318

Please give the result for GYRKEQERLGIPYDPIQWSTDQVLHWVVWVMKEFSMTDIDLTTLNISGRELCSKNQEDFFQRVPRGEILWSHLELLRKY [L54K] too.
-0.649

Please give the result for GYRKEQERLGIPYDPIQWSTDQVLHWVVWVMKEFSMIDIDLTTLNISGRELCSLNQEDFFQRVPRGEILWSHLELLRKY [T37I] too.
-0.256

Please give the result for GYRKEQERLGIPYDPIQWSTDQVLHWVVWVMKEFSMTDIDLTTLNISGRELCSLNQMDFFQRVPRGEILWSHLELLRKY [E57M] too.
-0.139

Please give the result for GYRKEQERLGIPYDPIQWSTDQVLHWVVWVMKEFSMTDIDLTTLNIKGRELCSLNQEDFFQRVPRGEILWSHLELLRKY [S47K] too.
-0.137

Please give the result for GYRKEQERLGIPYDPIQWSTDQVLHWVVWVMKEFSMDDIDLTTLNISGRELCSLNQEDFFQRVPRGEILWSHLELLRKY [T37D] too.
-0.22

Please give the result for GYRKEQERLGIPYDPIQWSTDQVLHWVVWVMKEFSMTDIDLTTLNISGYELCSLNQEDFFQRVPRGEILWSHLELLRKY [R49Y] too.
-0.077

Please give the result for GYRKEQERLGIPYDPIQWSTDQVLHWVVWVMKEFSMTDIDLTTLNISGRELCSLNQEDFFQRVPKGEILWSHLELLRKY [R65K] too.
-0.013

Please give the result for GYRKEQERLGIPYDPIQWSTDQVLHWVVWVMKEFSMTDIDLTTLNISGRELCSLNQEDFFQRVPRVEILWSHLELLRKY [G66V] too.
-0.835

Please give the result for GYRKEQERLGIPYDPIQWSTDQVLHWVVWVMKEFSMTSIDLTTLNISGRELCSLNQEDFFQRVPRGEILWSHLELLRKY [D38S] too.
-0.063
